src = ChEMBL document CHEMBL3875216

Listing: inhibition of selected compounds
- Tested on: Escherichia coli
- TEST: Inhibition of LuxR-dependent quorum sensing activity in Escherichia coli MT102 harboring pJBA132 assessed as inhibition of OHHL-induced GFP expression at 2 mM measured after 8 hrs by fluorescence assay relative to control
OBSERVATION TYPE: inhibition (%)

CC(=O)OC[C@H]1O[C@@H](OC(C)=O)[C@H](NC(=O)Cc2ccc(C(F)(F)F)cc2)[C@@H](OC(C)=O)[C@@H]1OC(C)=O | 11.3
CCCC(=O)CC(=O)N[C@H]1[C@H](OC(C)=O)O[C@H](COC(C)=O)[C@@H](OC(C)=O)[C@@H]1OC(C)=O | 88.1
CCCCCCCC(=O)N[C@@H]1[C@@H](O)[C@H](O)[C@@H](CO)O[C@H]1O | 16.7
O=C(Cc1ccc(Br)cc1)N[C@@H]1[C@@H](O)[C@H](O)[C@@H](CO)O[C@H]1O | 15.2
